Target: TNF-α (Homo sapiens, UniProt P01375)
Construct: purchased R&D 210-TA-020/CF
Sequence (P01375 77-233 limits assumed): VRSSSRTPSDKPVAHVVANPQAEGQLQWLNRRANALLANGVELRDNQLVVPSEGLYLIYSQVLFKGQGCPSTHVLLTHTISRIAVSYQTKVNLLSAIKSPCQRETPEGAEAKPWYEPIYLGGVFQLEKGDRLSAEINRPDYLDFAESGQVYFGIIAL
Test: TNF-α Induced HEK Blue Cellular Assay (secreted alkaline phosphatase expression, QUANTI-Blue)
Type: cell-based
Conditions: HEK Blue TNFα reporter cells; TNF-α 100 μg/ml; 24 hrs at 37° C.; inhibition of secreted alkaline phosphatase; read-out: IC50 value
pIC50: −log10 of the molar value.
Quantity Kind: pIC50

A selection of reference data follows.
| Compound | Target System | Quantity Kind | Result |
| --- | --- | --- | --- |
| [2H]C([2H])([2H])N1C(=O)c2cccc(OC(F)F)c2[C@H]2C[C@@H]1c1nc3ccc(C#CCCC4CC4)cc3n12 (single isomer, unassigned) | TNF-α (Homo sapiens, UniProt P01375) | pIC50 | > 7.00 |
| [2H]C([2H])([2H])N1C(=O)c2cccc(OC(F)F)c2[C@H]2C[C@@H]1c1nc3ccc(C#C[C@@H](C)CO)cc3n12 | TNF-α (Homo sapiens, UniProt P01375) | pIC50 | > 7.00 |
| [2H]C([2H])([2H])N1C(=O)c2cccc(OC(F)F)c2[C@H]2C[C@@H]1c1nc3ccc(C#CC4(C)CN(C(=O)C(C)(C)O)C4)cc3n12 | TNF-α (Homo sapiens, UniProt P01375) | pIC50 | 6.00 to 7.00 |
| [2H]C([2H])([2H])N1C(=O)c2cccc(OC(F)F)c2[C@H]2C[C@@H]1c1nc3ccc(C#CC4CN(CC(F)(F)F)C4)cc3n12 | TNF-α (Homo sapiens, UniProt P01375) | pIC50 | > 7.00 |

Answer for every listed entry: what is its pIC50? The entries follow.
1. [2H]C([2H])([2H])N1C(=O)c2cccc(OC(F)F)c2[C@H]2C[C@@H]1c1nc3ccc(C#CC4(C)CCCN(C(C)=O)C4)cc3n12 (stereo partly drawn)
2. [2H]C([2H])([2H])N1C(=O)c2cccc(OC(F)F)c2[C@H]2C[C@@H]1c1nc3ccc(C#CCCC(=O)O)cc3n12
3. [2H]C([2H])([2H])N1C(=O)c2cccc(OC(F)F)c2[C@H]2C[C@@H]1c1nc3ccc(C#CC(O)C(F)(F)F)cc3n12 (single isomer, unassigned) [Example 199]
4. [2H]C([2H])([2H])N1C(=O)c2cccc(OC(F)F)c2[C@H]2C[C@@H]1c1nc3ccc(C#CCC(C)O)cc3n12 (single isomer, unassigned) [Example 139]
5. [2H]C([2H])([2H])N1C(=O)c2cccc(OC(F)F)c2[C@H]2C[C@@H]1c1nc3ccc(C#CCC(O)C(C)O)cc3n12 (single isomer, unassigned) [Example 244]
6. [2H]C([2H])([2H])N1C(=O)c2cccc(OC(F)F)c2[C@H]2C[C@@H]1c1nc3ccc(C#CCCN4CC[C@@H](F)C4)cc3n12

Given back:
1: > 7.00; 2: 4.52 to 5.00; 3: 6.00 to 7.00; 4: > 7.00; 5: > 7.00; 6: > 7.00

Answer for every listed entry: what is its pIC50? The entries follow.
1. [2H]C([2H])([2H])N1C(=O)c2cccc(OC(F)F)c2[C@H]2C[C@@H]1c1nc3ccc(C#CCN4CCC(F)(F)C4)cc3n12
2. CN1C(=O)c2cccc(OC(F)F)c2[C@H]2C[C@@H]1c1nc3ccc(C#Cc4cnn(CCO)c4)cc3n12

Given back:
1. > 7.00
2. > 7.00
